# Test: Inhibition activity against protein phosphatase 1 (PP1), activity taken from literature
pIC50: −log10 of the molar value.

{"Item smiles": "C/C=C1/C(=O)N[C@@H](C(=O)O)[C@H](C)C(=O)N[C@@H](CCCNC(=N)N)C(=O)N[C@@H](/C=C/C(C)=C/[C@H](C)[C@H](Cc2ccccc2)OC)[C@H](C)C(=O)N[C@@H](C(=O)O)CCC(=O)N1C", "pIC50": 8.52}

----------
# Test: Observed inhibition activity against protein phosphatase 1 (PP1)
Quantity measured: IC50 (nM)

{"Item smiles": "C/C=C1/C(=O)N[C@@H](C(=O)O)[C@H](C)C(=O)N[C@@H](CCCNC(=N)N)C(=O)N[C@@H](/C=C/C(C)=C/[C@H](C)[C@H](Cc2ccccc2)OC)[C@H](C)C(=O)N[C@@H](C(=O)O)CCC(=O)N1C", "Quantity measured": "IC50", "Recorded value": 0.42}
